Biological target: T1, Human IFNAR1 SD1-SD4 (human, UniProt P17181 28-436, limits assumed)
T1 construct: domain: SD1-SD4; Antigen injected in the Biacore assay
T1 sequence (looked up): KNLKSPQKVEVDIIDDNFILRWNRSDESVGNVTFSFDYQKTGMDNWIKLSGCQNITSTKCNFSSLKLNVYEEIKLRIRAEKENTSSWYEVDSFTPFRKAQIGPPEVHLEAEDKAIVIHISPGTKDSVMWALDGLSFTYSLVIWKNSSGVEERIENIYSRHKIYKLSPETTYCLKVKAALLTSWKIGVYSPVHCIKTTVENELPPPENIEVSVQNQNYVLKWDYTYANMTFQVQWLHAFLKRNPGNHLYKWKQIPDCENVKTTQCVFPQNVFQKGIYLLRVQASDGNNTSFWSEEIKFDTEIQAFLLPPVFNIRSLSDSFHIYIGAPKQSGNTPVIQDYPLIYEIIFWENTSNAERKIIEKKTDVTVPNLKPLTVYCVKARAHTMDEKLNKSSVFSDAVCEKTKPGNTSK
Assay: SPR (Biacore 8K), antibody captured on anti-human IgG Fc, antigen injected
Please provide measured kon for the entries that follow.
Please respond with the number in M⁻¹ s⁻¹ and leave the unit unwritten.

[ask] What kon value was documented for this binder, Hu4-15 (antibody, V domains shown, Humanized 7G4 variant) VH: QVQLVQSGAEVKKPGASVKVSCKASGYTFTSYWMNWVRQAPGQGLEWIGKIDPSDSETHFNQKFRDRVTLTVDKSTSTVYMELSSLRSEDTAVYYCARGGRISFDYDAALDYWGQGTLVTVSS VL: DIQMTQSPSSLSASVGDRVTITCKSSEVIYNRLAWYQQKPGNAPKLLISGATTLESGVPSRFSGSGSGKDYTLTISSLQPEDFATYYCQQYWNKPFTFGQGTKLEIK ?
[reply] 472000

[ask] Reported kon for Hu4-13 (antibody, V domains shown, Humanized 7G4 variant) VH: QVQLVQSGAEVKKPGASVKVSCKASGYTFTSYWMNWVRQAPGQGLEWMGKIDPSDSETHFNQKFRDRVTMTRDTSTSTVYMELSSLRSEDTAVYYCARGGRISFDYDAALDYWGQGTLVTVSS VL: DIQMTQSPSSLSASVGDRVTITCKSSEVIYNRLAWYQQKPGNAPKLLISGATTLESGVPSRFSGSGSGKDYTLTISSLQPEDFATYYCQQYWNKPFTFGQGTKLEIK : what is it?
[reply] 449000

[ask] Which kon reading was recorded for the binder Hu4-16 (antibody, V domains shown, Humanized 7G4 variant) VH: QVQLVQSGAEVKKPGASVKVSCKASGYTFTSYWMNWVRQRPGQGLEWIGKIDPSDSETHFNQKFRDRVTLTVDKSTSTVYMELSSLRSEDTAVYYCARGGRISFDYDAALDYWGQGTLVTVSS VL: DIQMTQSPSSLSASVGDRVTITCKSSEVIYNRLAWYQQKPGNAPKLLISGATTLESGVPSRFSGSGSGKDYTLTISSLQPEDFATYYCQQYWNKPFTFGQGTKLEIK ?
[reply] 451000

[ask] What value of kon has been reported for the following binder? 7G4 Chimeric (antibody, V domains shown) VH: QVQLQQPGAELVKPGAPVKLSCKASGYTFTSYWMNWVRQRPGRGLEWIGKIDPSDSETHFNQKFRDKATLTVDKSSTTAYIQLSSLTSEDSAVYYCARGGRISFDYDAALDYWGQGTSVTVSS VL: DILMTQSSSSFSVSLGDRVTITCKSSEVIYNRLAWFQQKPGNAPRLLISGATTLESGFPSRFSGSGSGKDYTLSITSLQIEDVSTYYCQQYWNKPFTFGSGTKLEVK
[reply] 456000

[ask] Form field: reported kon of Hu4-6 (antibody, V domains shown, Humanized 7G4 variant) VH: QVQLVQSGAEVKKPGASVKVSCKASGYTFTSYWMNWVRQAPGQGLEWMGKIDPSDSETHFNQKFRDRVTLTVDKSTSTVYMELSSLRSEDTAVYYCARGGRISFDYDAALDYWGQGTLVTVSS VL: DIQMTQSPSSLSASVGDRVTITCKSSEVIYNRLAWYQQKPGKAPKLLIYGATTLESGVPSRFSGSGSGKDYTLTISSLQPEDFATYYCQQYWNKPFTFGQGTKLEIK
[reply] 444000

[ask] Dear colleague, I am looking for the recorded kon of the following binder: Hu4-14 (antibody, V domains shown, Humanized 7G4 variant) VH: QVQLVQSGAEVKKPGASVKVSCKASGYTFTSYWMNWVRQAPGQGLEWMGKIDPSDSETHFNQKFRDRVTLTVDKSTSTVYMELSSLRSEDTAVYYCARGGRISFDYDAALDYWGQGTLVTVSS VL: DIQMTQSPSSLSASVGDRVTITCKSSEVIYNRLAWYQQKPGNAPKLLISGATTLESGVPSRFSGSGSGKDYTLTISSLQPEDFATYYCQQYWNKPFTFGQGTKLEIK
[reply] 465000
